Biological target: full-length WT STING (Homo sapiens, UniProt Q86WV6, H232R)
Construct: made in house; host or cells: Trichoplusia ni insect cells, baculovirus generated in Sf21; crude membranes
Sequence (Q86WV6 with tags, fused parts or gaps H232R): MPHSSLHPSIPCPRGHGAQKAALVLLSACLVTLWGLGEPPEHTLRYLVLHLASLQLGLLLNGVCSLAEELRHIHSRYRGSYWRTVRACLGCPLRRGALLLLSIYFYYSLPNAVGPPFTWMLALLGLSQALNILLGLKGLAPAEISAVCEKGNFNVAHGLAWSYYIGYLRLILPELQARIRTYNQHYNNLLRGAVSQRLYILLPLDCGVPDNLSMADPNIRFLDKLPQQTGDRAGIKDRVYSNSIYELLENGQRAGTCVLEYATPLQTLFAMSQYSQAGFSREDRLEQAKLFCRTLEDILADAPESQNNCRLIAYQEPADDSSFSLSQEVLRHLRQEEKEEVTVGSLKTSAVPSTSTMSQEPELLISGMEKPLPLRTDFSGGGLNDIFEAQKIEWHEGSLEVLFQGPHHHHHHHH
Test: 3H-cGAMP filtration binding assay (WT STING)
Conditions: competition with tritiated cGAMP ligand; T. ni cell membranes overexpressing full-length WT STING
Readout: EC50 (nM)

- Compound: "Nc1nc2c(nnn2[C@@H]2S[C@@H]3COP(=O)(S)O[C@H]4[C@H](F)[C@H](n5ccc6c(=O)[nH]cnc65)O[C@@H]4COP(=O)(S)O[C@@H]2[C@@H]3F)c(=O)[nH]1 (single isomer, unassigned) [Example 50]"
  Assayed System: "full-length WT STING (Homo sapiens, UniProt Q86WV6, H232R)"
  Readout: "EC50"
  Numeric Readout: 9130
- Compound: "Nc1ncnc2c1ncn2[C@@H]1O[C@@H]2COP(=O)(S)O[C@H]3[C@H](F)[C@H](n4ccc5c(=O)[nH]cnc54)O[C@@H]3COP(=O)(S)O[C@@H]1C2 (single isomer, unassigned) [Example 46]"
  Assayed System: "full-length WT STING (Homo sapiens, UniProt Q86WV6, H232R)"
  Readout: "EC50"
  Numeric Readout: 2400
